Origin of measurements: paper PMC9352680

Target: T1, PUF4 RNA-binding domain (Saccharomyces cerevisiae, UniProt P25339 537-888)
T1 sequence: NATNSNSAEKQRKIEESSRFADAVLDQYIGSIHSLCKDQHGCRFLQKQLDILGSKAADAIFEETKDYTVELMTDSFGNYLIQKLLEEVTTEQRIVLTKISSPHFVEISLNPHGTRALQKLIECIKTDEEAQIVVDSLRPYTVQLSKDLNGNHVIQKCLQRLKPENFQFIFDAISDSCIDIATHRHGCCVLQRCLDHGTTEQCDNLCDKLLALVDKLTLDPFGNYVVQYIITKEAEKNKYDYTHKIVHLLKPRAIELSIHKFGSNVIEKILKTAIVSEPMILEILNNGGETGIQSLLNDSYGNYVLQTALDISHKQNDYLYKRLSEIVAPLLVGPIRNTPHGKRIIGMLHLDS
Test: Mg; RNA-MaP; 20 mM Na-HEPES pH 7.4, 30 mM KOAc, 0.75 mM MgCl2, 0.1% Tween-20, 5% glycerol, 0.1 mg/mL BSA, 2 mM DTT; 25 C; 0.0125-409.6 nM protein
Details: tags: N-His6-TEV cleaved; C-SNAP kept, Cy3B-labelled; label: tethered on chip by stalled RNA polymerase
Each record here notes measured Kd.

Examples from the recorded data:
stdin: I'd like to know its Kd. The binder in question is Ic_S2_P3E.1_K3.1_C3.1_H3.1_A3.1_F3.1_[T7A]_[A8T]_T3.1 (ssRNA) RNA: UUUGAUUAAUAUGAUAUCGUUCUUUCUUGUAUAAUUUCUUUCUCGAUAUCAUAUUAAUCUUU
stdout: 6.77 nM

stdin: I'd like to know its Kd. The binder in question is ACAAACCAACACUAUUACUACAAAC (ssRNA) [Id_ii_S3_P4E.4_K4.3_C4.2_[T-1A]_H4.3_A4.1_F4.1_T4.2_[G10C]]
stdout: > 2300 nM

stdin: I'd like to know its Kd. The binder in question is Ib_S4_P5E.1_K5.1_C5.1_H5.1_A5.1_[A7G]_F5.1_[A10G]_T5.1 (ssRNA) RNA: UUUGACAACUGAUCGUUCUUUCUUGUAUUGUUGUUCUUUCUCGAUCAGUUGUCUUU
stdout: 52.3 nM

Further cases:
stdin: I'd like to know its Kd. The binder in question is Id_ii_S2_P4E.3_K4.2_C4.2_[T-1C]_H4.2_A4.1_F4.1_T4.2_[G10A] (ssRNA) RNA: UUUGAUUAAUAUGAUAUCGUUCUUUCUCCUAUAUAUUAAUUUCUUUCUCGAUAUCAUAUUAAUCUUU
stdout: 7.32 nM
